// Cyclin-dependent kinase 2/cyclin E (Homo sapiens) pIC50 records
pIC50: −log10 of the molar value.
experimental-endpoint: pIC50

smi	target-or-test-system	reading-qualifier	val
CCc1nn(-c2c(Cl)cc(Cl)cc2Cl)c2nc(Cc3ccccn3)[nH]c(=O)c12	Cyclin-dependent kinase 2/cyclin E (Homo sapiens)	=	6.64
CSc1nn(-c2c(Cl)cc(Cl)cc2Cl)c2nc(Cc3ccccc3)[nH]c(=O)c12	Cyclin-dependent kinase 2/cyclin E (Homo sapiens)	=	6.36
CCc1nn(-c2c(Cl)cc(Cl)cc2Cl)c2nc(Cc3ccccc3OC)[nH]c(=O)c12	Cyclin-dependent kinase 2/cyclin E (Homo sapiens)	=	7.00
CSc1nn(-c2c(Cl)cc(Cl)cc2Cl)c2nc(C3CC3)[nH]c(=O)c12	Cyclin-dependent kinase 2/cyclin E (Homo sapiens)	=	6.40
CCc1nn(-c2c(Cl)cc(Cl)cc2Cl)c2nc(Cc3ccc(NC(=O)CNC(=O)OC(C)(C)C)cc3)[nH]c(=O)c12	Cyclin-dependent kinase 2/cyclin E (Homo sapiens)	=	8.00
CCc1nn(-c2c(Cl)cc(Cl)cc2Cl)c2nc(CCc3ccccc3)[nH]c(=O)c12	Cyclin-dependent kinase 2/cyclin E (Homo sapiens)	=	5.74
CSc1nn(-c2c(Cl)cc(Cl)cc2Cl)c2nc(CCCO)[nH]c(=O)c12	Cyclin-dependent kinase 2/cyclin E (Homo sapiens)	=	6.12
CCc1nn(-c2c(Cl)cc(Cl)cc2Cl)c2nc(Cc3cccc(C)c3)[nH]c(=O)c12	Cyclin-dependent kinase 2/cyclin E (Homo sapiens)	=	6.41
CSc1nn(-c2c(Cl)cc(Cl)cc2Cl)c2nc(CCCCCO)[nH]c(=O)c12	Cyclin-dependent kinase 2/cyclin E (Homo sapiens)	=	6.38
CCc1nn(-c2c(Cl)cc(Cl)cc2Cl)c2nc(CC(C)C)[nH]c(=O)c12	Cyclin-dependent kinase 2/cyclin E (Homo sapiens)	=	6.96
CSc1nn(-c2c(Cl)cc(Cl)cc2Cl)c2nc(C)[nH]c(=O)c12	Cyclin-dependent kinase 2/cyclin E (Homo sapiens)	=	6.44
CCc1nn(-c2c(Cl)cc(Cl)cc2Cl)c2nc(Cc3ccccc3O)[nH]c(=O)c12	Cyclin-dependent kinase 2/cyclin E (Homo sapiens)	=	6.92
CN(C)c1ccc(C(=C2C=CC(=[N+](C)C)C=C2)c2ccc(N(C)C)cc2)cc1.CN(C)c1ccc(C(=C2C=CC(=[N+](C)C)C=C2)c2ccc(N(C)C)cc2)cc1.CN=C1C=CC(=C(c2ccc(N(C)C)cc2)c2ccc(N(C)C)cc2)C=C1	Cyclin-dependent kinase 2/cyclin E (Homo sapiens)	=	8.00
CCc1nn(-c2c(Cl)cc(Cl)cc2Cl)c2nc(Cc3ccc(Br)cc3)[nH]c(=O)c12	Cyclin-dependent kinase 2/cyclin E (Homo sapiens)	=	7.30
CCc1nn(-c2c(Cl)cc(Cl)cc2Cl)c2nc(Cc3cccc(N)c3C)[nH]c(=O)c12	Cyclin-dependent kinase 2/cyclin E (Homo sapiens)	=	8.00
CCc1nn(-c2c(Cl)cc(Cl)cc2Cl)c2nc(Cc3cccc(N)c3)[nH]c(=O)c12	Cyclin-dependent kinase 2/cyclin E (Homo sapiens)	=	7.40
CCc1nn(-c2c(Cl)cc(Cl)cc2Cl)c2nc(Cc3ccccc3CO)[nH]c(=O)c12	Cyclin-dependent kinase 2/cyclin E (Homo sapiens)	=	7.70
CCc1nn(-c2c(Cl)cc(Cl)cc2Cl)c2nc(Cc3ccc(C)c(O)c3)[nH]c(=O)c12	Cyclin-dependent kinase 2/cyclin E (Homo sapiens)	=	7.70
CCc1nn(-c2c(Cl)cc(Cl)cc2Cl)c2c1S(=O)(=O)NC(C)=N2	Cyclin-dependent kinase 2/cyclin E (Homo sapiens)	<	4.89
